Reported normalized growth values for a set of compounds
method: chemical genetic growth profiling, strain panel (AID 1159580);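 also: tested at 20 µM; growth read once vehicle control cultures reached saturation at 30 °C; 1 = growth at the plate median or of vehicle wells; lower values mean less growth of the strain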
experimental.conditions: S. cerevisiae deletion strains, growth OD, locus YEL061C, strain CIN8, hits give low values
Screen size: about 5,500 compounds; about 2,000 (36%) were called active. Not shown: some 18% with an inconclusive outcome. This is one part of the list.

Worked examples, 6 compounds total:
CCn1cc(C(=O)O)c(=O)c2cnc(N3CCCC3)nc21 = 0.999 (inactive)
BrC12CC3CC(CC(C3)C1)C2 = 1.01 (inactive)
CCOC(=O)c1ccc(N)cc1 = 1.01 (inactive)
O=C1c2cccc3c(SCCO)ccc(c23)C(=O)N1CCc1ccccn1 = 1 (inactive)
CCn1cc(C(=O)O)c(=O)c2cc3c(cc21)OCO3 = 1.01 (inactive)
CC1(C)CC2C1CCC1(C)OC1CCC2(C)O (stereo not drawn) = 1.02 (inactive)

Query: What does the data say about its normalized growth? Entry: "CCn1cc(C(=O)O)c(=O)c2ccc(C)nc21"
Reply: 0.946 (inactive)

Query: What does the data say about its normalized growth? Entry: "CCOc1ccc2c(c1)C(C)=CC(C)(C)N2"
Reply: 0.997 (inactive)
